# Tested on: OVCAR-3 ovarian
# assay-details: NCI-60 one-dose screen, 48 h
# condition-label: 10 µM unless noted
This is part of a sample that, as a whole, favours compounds with a hit. Of some 83,000 tested, about 20% had one in any assay. Activity calls are given as the source filed them. Rule for the calls: active = growth percent below 10; inactive = the rest.
Outcome (select one): active, inactive

See these solved cases before continuing.
CCOC(=O)c1c(C)nc2c(c1N)CC(=O)N2CCc1ccccc1
inactive
COc1cc2c(Nc3ccc(NC(=O)Nc4ccc(Cl)c(C(F)(F)F)c4)c(Cl)c3)ncnc2cc1OCCCN1CCN(C)CC1
inactive
O=C(O)c1cn(C2CC2)c2cc(N3CCN(C(=O)CSc4nnc(-c5ccc(Cl)cc5)n4-c4ccccc4)CC3)c(F)cc2c1=O
inactive
CC(C)Cc1cc(CNC(=O)C2[C@H]3CN(C(=O)c4ccccc4)C[C@@H]23)nn1-c1ccccc1 (stereo partly specified)
inactive
COc1ccc(/C=C/C(=O)Nc2ncnc3nc[nH]c23)cc1
inactive
COc1cc(NC(=O)Nc2cnc(Nc3ccc(N4CCOCC4)cc3)nc2Oc2ccc(C(F)(F)F)cc2)cc(OC)c1
inactive
C=C(C)[C@@H]1CC[C@]2(C(=O)OCCOCCOCC[P+](c3ccccc3)(c3ccccc3)c3ccccc3)CC[C@]3(C)[C@H](CC[C@@H]4[C@@]5(C)CC[C@H](OC(=O)C(Cl)Cl)C(C)(C)[C@@H]5CC[C@]43C)[C@@H]12
active
CC(=O)OCC1SC(OC(C)=O)C(NC(=O)/C=C/CCl)C(OC(C)=O)C1OC(C)=O (stereo unspecified)
inactive

We now examine a further compound.
Called result for `COc1cc2nc3c(=O)n(CCN(C)C)cnn3c(=O)c2cc1OC`
inactive
